Value source: patent US20080039455A1

Target: human recombinant ALK1 (GST fused to ALK1 intracellular domain [His142-Gln503]) (Homo sapiens, UniProt P37023)
Construct: GST fused to ALK1 intracellular domain [His142-Gln503]
Sequence (P37023 142-503): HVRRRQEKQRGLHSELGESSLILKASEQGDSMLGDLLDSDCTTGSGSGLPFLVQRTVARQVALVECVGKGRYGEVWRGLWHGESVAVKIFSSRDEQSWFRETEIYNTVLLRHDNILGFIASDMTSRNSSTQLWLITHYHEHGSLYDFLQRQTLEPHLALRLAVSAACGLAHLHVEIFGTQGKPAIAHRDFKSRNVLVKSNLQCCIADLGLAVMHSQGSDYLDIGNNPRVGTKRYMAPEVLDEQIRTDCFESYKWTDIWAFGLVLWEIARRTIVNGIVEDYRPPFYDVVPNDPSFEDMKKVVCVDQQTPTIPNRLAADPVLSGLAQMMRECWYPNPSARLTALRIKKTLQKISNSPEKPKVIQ
Assay: ALK1-Kinase Flashplate-Assay
Settings: 0.5 μM ATP, biotinylated α-casein substrate; read-out: Assay 1 (ALK1-Kinase Flashplate-Assay IC50 class)
pIC50: −log10 of the molar value.
Assay readout: pIC50

Worked examples, 3 compounds total:
Need pIC50 of COc1cccc(-c2cnn3ccc(Nc4ccc(O)cc4)nc23)c1 , thanks.
> 6.00

Follow-up item: FC(F)(F)Oc1cccc(-c2cnn3ccc(Nc4ccc(N5CCOCC5)cc4)nc23)c1
5.00 to 6.00

Follow-up item: COc1ccc(Nc2ccn3ncc(-c4cccc(N(C)C)c4)c3n2)cn1
5.00 to 6.00

Give pIC50 for each listed item.
1. NC(=O)c1cccc(-c2cnn3ccc(NCc4ccncc4)nc23)c1
2. COc1ccc(-c2cnn3ccc(Nc4ccc(Oc5ccccc5)cc4)nc23)cc1OC

5.00 to 6.00
5.00 to 6.00
